target or system: peripheral benzodiazepine receptors (Rattus norvegicus, UniProt P16257)
Sequence (P16257 whole entry): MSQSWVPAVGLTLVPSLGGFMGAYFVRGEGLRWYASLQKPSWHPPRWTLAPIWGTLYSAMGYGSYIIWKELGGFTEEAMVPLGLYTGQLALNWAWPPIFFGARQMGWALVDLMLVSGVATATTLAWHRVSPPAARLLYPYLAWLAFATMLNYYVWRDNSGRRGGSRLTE
experiment: biochemical
Type: binding
test context: Table 2; read-out: IC50 (nM) peripheral
Listing of entries alongside the reported IC50.
Your answer should be a plain number; it is taken to be in nM.

Cc1ccc(-c2nc3ccc(C)cn3c2C2CCCN(C)C2=O)cc1 (centres unmarked) [drawing 155]	1500

Q: Given the molecule Cc1ccc(-c2nc3ccc(C)cn3c2C2CCCN(C)C2=O)cc1 (centres unmarked) [drawing 151] , what is its reported IC50?
Ans: 1240

Q: Also need Cc1ccc(-c2nc3ccc(C)cn3c2C2CC=CCN(C)C2=O)cc1 (centres unmarked) , thanks.
Ans: 210

---

target or system: central benzodiazepine receptors
experiment: binding to central benzodiazepine receptors, displacement of 3H-flunitrazepam (test of Speth et al.)
test context: Table 1a
// reported IC50 for each item listed
Could you give me the number in nM? Just the number is fine.

Q: I'd like to know its IC50. The compound in question is `Cc1ccc(-c2nc3ccc(C)cn3c2CC(=O)c2ccccc2)cc1`
Ans: 1750

Q: Follow-up item: `Cc1ccc(-c2nc3ccc(C)cn3c2CC(=O)c2ccc(Cl)cc2)cc1`
Ans: 4060

Q: Moving on to `CCCCCC(=O)Cc1c(-c2ccc(C)cc2)nc2ccc(C)cn12`
Ans: 420

Q: One more compound: `CC(=O)Cc1c(-c2ccc(C)cc2)nc2ccc(C)cn12`
Ans: 439

---

target or system: peripheral benzodiazepine receptors (Rattus norvegicus)
experiment: biochemical
Type: binding
test context: Table 1a; read-out: IC50 (nM) peripheral
Define the label as Fulfilled when IC50 is strictly less than 300 nM and as Not fulfilled in all remaining cases.

CCCCCC(=O)Cc1c(-c2ccc(C)cc2)nc2ccc(C)cn12	Fulfilled

Q: Hello, is IC50 of the following molecule strictly smaller than 300 nM? `Cc1ccc(-c2nc3ccc(C)cn3c2CC(=O)c2ccco2)cc1`
Ans: Not fulfilled

Q: Entry to check: `Cc1ccc(-c2nc3ccc(C)cn3c2CC(=O)c2ccoc2)cc1`
Ans: Not fulfilled

---

target or system: peripheral benzodiazepine receptors (Rattus norvegicus)
experiment: biochemical
Assay type: binding
test context: Table 1a; read-out: IC50 (nM) peripheral
endpoint name: IC50 (nM)
Write the answer as a number in nM, unit excluded.

Cc1ccc(-c2nc3ccc(C)cn3c2CC(=O)c2sc(C)nc2C)cc1	2000

Q: Entry `Cc1ccc(-c2nc3ccc(C)cn3c2CC(=O)c2c(C)noc2C)cc1` : reported IC50 = ?
Ans: 1200

Q: Can you check `Cc1ccc(-c2nc3ccc(C)cn3c2CC(=O)c2cn(-c3cccc(C)n3)cn2)cc1` next?
Ans: 6600

Q: Quick one: `Cc1ccc(-c2nc3ccc(C)cn3c2CC(=O)Cc2cccs2)cc1`
Ans: 59

Q: And then `Cc1ccc(-c2nc3ccc(C)cn3c2CC(=O)c2cc(C)n(C)n2)cc1` , what is it?
Ans: 1300

Q: What do you have for `Cc1ccc(-c2nc3ccc(C)cn3c2CC(=O)CC(C)C)cc1` ?
Ans: 820

Q: Try `Cc1ccc(-c2nc3ccc(C)cn3c2CC(=O)C2CCCC2)cc1` next.
Ans: 310

Q: One more compound: `Cc1ccc(-c2nc3ccc(C)cn3c2CC(=O)c2snnc2C)cc1`
Ans: 320

Q: Also need `Cc1ccc(-c2nc3ccc(C)cn3c2CC(=O)c2scc(S(C)(=O)=O)c2Cl)cc1` , thanks.
Ans: 730

Q: Same for `CC(=O)Cc1c(-c2ccc(C)cc2)nc2ccc(C)cn12`
Ans: 231

Q: Input `CSc1ccc(C(=O)Cc2c(-c3ccc(C)cc3)nc3ccc(C)cn23)s1`
Ans: 6000

Q: Repeat for the following compound: `Cc1ccc(-c2nc3ccc(C)cn3c2CC(=O)c2c(C)nc3cc(C)ccn23)cc1`
Ans: 210

Q: Subsequent entry: `Cc1ccc(-c2nc3ccc(C)cn3c2CC(=O)CCc2ccccc2)cc1`
Ans: 290

Q: And then `Cc1ccc(-c2nc3ccc(C)cn3c2CC(=O)c2cc(C)on2)cc1` , what is it?
Ans: 560

Q: For Cc1ccc(-c2nc3ccc(C)cn3c2CC(=O)C2COc3ccccc3O2)cc1 (stereo not shown) then?
Ans: 32

Q: And the next one, `Cc1ccc(-c2nc3ccc(C)cn3c2CC(=O)c2nsc(Cl)c2Cl)cc1` ?
Ans: 1700

Q: Another compound to look at: `Cc1ccc(-c2nc3ccc(C)cn3c2CC(=O)c2cncnc2)cc1`
Ans: 3400

The reported measurements were obtained from patent US7148353B2.
